# Study target: ORAI 1/2/3 (Homo sapiens, UniProt Q96D31+Q96SN7+Q9BRQ5)
# Protocol notes: Inhibition of ORAl1/2/3 in HEK293 cells assessed as inhibition of Ca2+ influx after 10 mins by FLIPR assay in presence of thapsigargin
# Format: cell-based
Just a reminder that ties go to class 0: only IC50 strictly below 8 µM counts as class 1.

Compound: FC(F)(F)c1ccc([B-]2(c3ccc(C(F)(F)F)cc3)[NH2+]CCO2)cc1
Assigned label: class 1
//
Compound: O=C1C[NH2+][B-](c2ccccc2)(c2ccccc2)O1
Assigned label: class 0
//
Compound: CCCCc1ccc([B-]2(c3ccccc3)[NH2+]CCO2)cc1 (stereo not given)
Assigned label: class 1
//
Compound: Cc1ccc([B-]2(c3ccc(C)cc3)[NH2+]CCO2)cc1
Assigned label: class 1
//
Compound: OC(c1ccccc1)c1ccccc1
Assigned label: class 0
//
Compound: c1ccc([B-]2(c3ccccc3)[NH2+]CCO2)cc1
Assigned label: class 0
//
Compound: c1ccc([B-]2(c3ccccc3)[NH2+]CCS2)cc1
Assigned label: class 0
//
Compound: Ic1ccc([B-]2(c3ccccc3)[NH2+]CCO2)cc1 (stereo not given)
Assigned label: class 1
//
Compound: CN(C)CCOC(c1ccccc1)c1ccccc1 [DIPHENHYDRAMINE]
Assigned label: class 0
//
Compound: OB(c1ccc(C(F)(F)F)cc1)c1ccc(C(F)(F)F)cc1
Assigned label: class 1
//
Compound: COc1ccc([B-]2(c3ccc(OC)cc3)[NH2+]CCO2)cc1
Assigned label: class 0
//
Compound: C[N+]1(C)CCO[B-]1(c1ccccc1)c1ccccc1
Assigned label: class 0
//
Compound: CB(O)O
Assigned label: class 0
